Where do the numbers come from? From patent US20260174875A1.

- ASSAY SYSTEM: T1, human amylin-3(a) receptor (human, UniProt P30988 25-474; O60896 24-148)
- T1 sequence (looked up) 1: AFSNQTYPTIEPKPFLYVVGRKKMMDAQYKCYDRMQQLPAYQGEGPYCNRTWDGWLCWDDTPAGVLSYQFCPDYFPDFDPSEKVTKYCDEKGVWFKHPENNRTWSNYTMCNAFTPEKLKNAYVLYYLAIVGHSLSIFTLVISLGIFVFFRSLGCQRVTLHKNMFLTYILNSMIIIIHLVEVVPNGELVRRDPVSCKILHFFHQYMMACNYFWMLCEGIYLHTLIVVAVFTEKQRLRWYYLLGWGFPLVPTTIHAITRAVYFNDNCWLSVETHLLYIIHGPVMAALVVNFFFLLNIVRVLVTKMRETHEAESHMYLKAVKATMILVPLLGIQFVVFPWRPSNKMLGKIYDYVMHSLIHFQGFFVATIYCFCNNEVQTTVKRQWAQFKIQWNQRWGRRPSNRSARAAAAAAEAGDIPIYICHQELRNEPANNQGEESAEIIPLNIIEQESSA
- T1 sequence (looked up) 2: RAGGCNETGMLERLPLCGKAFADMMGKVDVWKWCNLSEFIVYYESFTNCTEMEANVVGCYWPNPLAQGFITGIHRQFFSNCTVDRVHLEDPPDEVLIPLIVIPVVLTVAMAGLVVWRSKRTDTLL
- PROTOCOL DESCRIPTION: cell-based or functional assay
Numbered stars: 1 amine (or outer) side, 2 acyl side, 3 side chain; on linkers, the order of the positions; unused ones are H or OH. Square brackets hold non-standard residues; d marks the D form. Side chains are listed from the residue outwards. * marks the point of attachment. C18 diacid = O=C(O)CCCCCCCCCCCCCCCCC(=O)*; γGlu = O=C(O)[C@H](CCC(=O)[*:2])N[*:1]; Chem. 28 = not defined here; Aib = CC(C)(N)C(=O)O
So I've got a bunch of binders here, and I need their hAMYR3 Potency, no HSA, EC50 [pM] values.
Give bare numbers, in pM.

Compound 27 (reading uncertain) peptide: Y[Aib]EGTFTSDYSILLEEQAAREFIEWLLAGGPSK(Chem. 28)GEASELSTAQLGRLSAELHRLATLPRTETGSGSP-NH2
3.82
Compound 112 (peptide) peptide: H[Aib]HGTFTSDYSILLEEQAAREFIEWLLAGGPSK([γGlu-C18 diacid])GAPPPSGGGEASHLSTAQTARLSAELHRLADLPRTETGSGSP-NH2
3.65

### Prompt Would you kindly share the measured hAMYR3 Potency, no HSA, EC50 [pM] for Compound 101 (reading uncertain) peptide: H[Aib]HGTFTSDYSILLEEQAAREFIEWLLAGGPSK(Chem. 28)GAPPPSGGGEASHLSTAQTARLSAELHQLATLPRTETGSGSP-NH2 ?
### Response 3.08
